# study-system: PcrV of P. aeruginosa strain PA103 (on TTSS-induced bacteria) (Pseudomonas aeruginosa strain PA103)
# protocol-description: cell-based or functional assay
A collection of binders and their measured IC50 value (M), P3X63 cytotoxicity, MOI 12
property-name: IC50 value (M), P3X63 cytotoxicity, MOI 12

- binder: "Nanobody 256 (13F07-40GS-5H01) (VHH) EVQLVESGGGLVQAGGSLRLSCAASGNTFSTNPMYWYRQAEGKQRELVASISSRGITNYADSVRGRFSISRDNTKDTVYLQMNSLKPEDTAVYYCRLASLSSGTVYWGKGTLVTVSSGGGGSGGGGSGGGGSGGGGSGGGGSGGGGSGGGGSGGGGSEVQLVESGGGLVQPGGSLRLSCAASGSTLDYYAIGWFRQAPGKEREGVSCTSNSGSTYYGGSVKGRFTASRDNAKNTVYLQMNSLRPEDTAVYYCVATIGCATLGGTLDVQRYYYRGQGTLVTVSS"
  result-units: "M"
  assay-result: "5.4e-11"
- binder: "Fab 13.37 (Fab, V domains shown) VH: QVQLVESGGGVVQPGRSLRLSCAASGFTFSSYPLHWVRQAPGKGLEWVSFISYDGSEKYYASSVKGRFTISRDNSENTLYLQMNSLRPEDTAVYYCARNRGDIYYDFTYAMDIWGQGTMVTVSS VL: DIQMTQSPSSLSASVGDRVTITCRASQSISRWVAWYQQRPGKAPNLLIYDASSLKSGVPSRFSGSGSGTEFTLTISSLQPEDIATYYCQQFWGTPYTFGQGTKLEIKR"
  result-units: "M"
  assay-result: "5.4e-10"
- binder: "Nanobody 257 (13F07-40GS-2B10) (VHH) EVQLVESGGGLVQAGGSLRLSCAASGNTFSTNPMYWYRQAEGKQRELVASISSRGITNYADSVRGRFSISRDNTKDTVYLQMNSLKPEDTAVYYCRLASLSSGTVYWGKGTLVTVSSGGGGSGGGGSGGGGSGGGGSGGGGSGGGGSGGGGSGGGGSEVQLVESGGGLVQPGGSLRLSCAASGSIFSINNMGWYRQAPGKQRELVTVVTSNLITTYADSVKGRFTISRDNAKNTVYLQMNSLKPEDTAVYYCNAWARSVGSVPYSQFWGQGTLVTVSS"
  result-units: "M"
  assay-result: "1.3e-10"
- binder: "Nanobody 277 (5H01-40GS-11B09) (VHH) EVQLVESGGGLVQPGGSLRLSCAASGSTLDYYAIGWFRQAPGKEREGVSCTSNSGSTYYGGSVKGRFTASRDNAKNTVYLQMNSLRPEDTAVYYCVATIGCATLGGTLDVQRYYYRGQGTLVTVSSGGGGSGGGGSGGGGSGGGGSGGGGSGGGGSGGGGSGGGGSEVQLVESGGGLVQAGGSLRLSCAASRLTFNHYNMGWFRQAPGKERERVAEVTWSGDKIYYVDSVKGRFTISRDNTPNPVYLYLQMNSLKPEDTAVYYCATAPRGLPYANGYWGQGTLVTVSS"
  result-units: "M"
  assay-result: "1.3e-11"
- binder: "Nanobody 285 (13F07-40GS-2B02) (VHH) EVQLVESGGGLVQAGGSLRLSCAASGNTFSTNPMYWYRQAEGKQRELVASISSRGITNYADSVRGRFSISRDNTKDTVYLQMNSLKPEDTAVYYCRLASLSSGTVYWGKGTLVTVSSGGGGSGGGGSGGGGSGGGGSGGGGSGGGGSGGGGSGGGGSEVQLVESGGGLVQPGDSLRLSCAASGRILSINNMVWYRQAPGKQRELVAHITSSGSTGYADSVKGRFTISRDNAKNTFYLQMTNLNPEDTAVYYCNCWVSSDSNAPLKNYWGQGTLVTVSS"
  result-units: "M"
  assay-result: "6.1e-11"
